Source: the NIST ThermoML archive (doi:10.1021/je0500375)

- Assay summary: activity coefficient (dimensionless); of the first substance listed, at infinite dilution; xn = mol fraction of the nth substance listed
- Details: 313.15 K; 101.33 kPa; Liquid; Chromatography; x1 = 0
Assay readout: activity coefficient

Illustrative cases are given below, each with its answer.
Compound: C#CCCCCCC [1-octyne] + CCCCCCCCOS(=O)(=O)[O-].CCCCn1cc[n+](C)c1
activity coefficient: 3.42
//
Compound: ClC(Cl)(Cl)Cl [tetrachloromethane] + CCCCCCCCOS(=O)(=O)[O-].CCCCn1cc[n+](C)c1
activity coefficient: 1.74
//
Compound: C#CCCCC [1-hexyne] + CCCCCCCCOS(=O)(=O)[O-].CCCCn1cc[n+](C)c1
activity coefficient: 2.38
//
Compound: CCCCCC [hexane] + CCCCCCCCOS(=O)(=O)[O-].CCCCn1cc[n+](C)c1
activity coefficient: 7.59
//
Compound: C1CCCCCC1 [cycloheptane] + CCCCCCCCOS(=O)(=O)[O-].CCCCn1cc[n+](C)c1
activity coefficient: 5.52

[1] C#CCCCCC [1-heptyne] + CCCCCCCCOS(=O)(=O)[O-].CCCCn1cc[n+](C)c1
[2] C=CCCCCCC [oct-1-ene] + CCCCCCCCOS(=O)(=O)[O-].CCCCn1cc[n+](C)c1
activity coefficient comparison. Which is larger, 1 or 2 ? Please reply using the label of the selected record.
2

----------
- Assay summary: activity coefficient (dimensionless); of the first substance listed, at infinite dilution; xn = mol fraction of the nth substance listed
- Details: 313.15 K; 101.33 kPa; Liquid; Chromatography; x1 = 0
Assay readout: activity coefficient

Reference set (3 entries):
Compound: CCCCCCC [heptane] + CCCCCCCCOS(=O)(=O)[O-].CCCCn1cc[n+](C)c1
activity coefficient: 8.58
//
Compound: C=CCCCC [hex-1-ene] + CCCCCCCCOS(=O)(=O)[O-].CCCCn1cc[n+](C)c1
activity coefficient: 5.76
//
Compound: Cc1ccccc1 [toluene] + CCCCCCCCOS(=O)(=O)[O-].CCCCn1cc[n+](C)c1
activity coefficient: 2.02

[I] C1CCCCC1 [cyclohexane] + CCCCCCCCOS(=O)(=O)[O-].CCCCn1cc[n+](C)c1
[II] CO [methanol] + CCCCCCCCOS(=O)(=O)[O-].CCCCn1cc[n+](C)c1
Returns: the label, I or II , whose recorded activity coefficient is the lower number. Select an item and report its label.
II

----------
- Assay summary: activity coefficient (dimensionless); of the first substance listed, at infinite dilution; xn = mol fraction of the nth substance listed
- Details: 298.15 K; 101.33 kPa; Liquid; Chromatography; x1 = 0
Assay readout: activity coefficient

Molecule: Cc1ccccc1 [toluene] + CCCCCCCCOS(=O)(=O)[O-].CCCCn1cc[n+](C)c1
activity coefficient: 1.98

Molecule: CCCCCCCC [octane] + CCCCCCCCOS(=O)(=O)[O-].CCCCn1cc[n+](C)c1
activity coefficient: 9.63

Molecule: C#CCCCC [1-hexyne] + CCCCCCCCOS(=O)(=O)[O-].CCCCn1cc[n+](C)c1
activity coefficient: 2.25

[a] C#CCCCCCC [1-octyne] + CCCCCCCCOS(=O)(=O)[O-].CCCCn1cc[n+](C)c1
[b] CCCCC [pentane] + CCCCCCCCOS(=O)(=O)[O-].CCCCn1cc[n+](C)c1
[c] CO [methanol] + CCCCCCCCOS(=O)(=O)[O-].CCCCn1cc[n+](C)c1
[d] c1ccccc1 [benzene] + CCCCCCCCOS(=O)(=O)[O-].CCCCn1cc[n+](C)c1
# ascending order, key=activity coefficient Reply with the labels, ordered as the question asks.
c, d, a, b
(c: 0.386, d: 1.42, a: 3.25, b: 6.63)

[P] C=CCCCCCC [oct-1-ene] + CCCCCCCCOS(=O)(=O)[O-].CCCCn1cc[n+](C)c1
[Q] C1CCCCC1 [cyclohexane] + CCCCCCCCOS(=O)(=O)[O-].CCCCn1cc[n+](C)c1
Between P and Q , whose measured activity coefficient reads higher? Write down the label attached to your selection.
P
(P: 7.38, Q: 4.92)

[I] CCCCCC [hexane] + CCCCCCCCOS(=O)(=O)[O-].CCCCn1cc[n+](C)c1
[II] C#CCCCCC [1-heptyne] + CCCCCCCCOS(=O)(=O)[O-].CCCCn1cc[n+](C)c1
Lower value of activity coefficient belongs to which: I or II ? Lab log: write the label of the selected item as the result.
II
